- TEST_CONDITIONS: in ethanol, 283.15 K
READOUT: solubility (mole fraction)
Form field (numeric): enter value without unit.

Query `Nc1c(Cl)cc([N+](=O)[O-])cc1Cl` yields solubility (mole fraction) of 0.00102

----------
- TEST_CONDITIONS: in ethylene glycol, 308.15 K
READOUT: solubility (mole fraction)
Form field (numeric): enter value without unit.

Query `Nc1c(Cl)cc([N+](=O)[O-])cc1Cl` yields solubility (mole fraction) of 0.00236

----------
- TEST_CONDITIONS: in ethylene glycol, 313.15 K
READOUT: solubility (mole fraction)
Form field (numeric): enter value without unit.

Query `Nc1c(Cl)cc([N+](=O)[O-])cc1Cl` yields solubility (mole fraction) of 0.00281

----------
- TEST_CONDITIONS: in ethanol, 278.15 K
READOUT: solubility (mole fraction)
Form field (numeric): enter value without unit.

Query `Nc1c(Cl)cc([N+](=O)[O-])cc1Cl` yields solubility (mole fraction) of 0.000879

----------
- TEST_CONDITIONS: in NMP, 308.15 K
READOUT: solubility (mole fraction)
Form field (numeric): enter value without unit.

Query `Nc1c(Cl)cc([N+](=O)[O-])cc1Cl` yields solubility (mole fraction) of 0.189

----------
- TEST_CONDITIONS: in acetonitrile, 303.15 K
READOUT: solubility (mole fraction)
Form field (numeric): enter value without unit.

Query `Nc1c(Cl)cc([N+](=O)[O-])cc1Cl` yields solubility (mole fraction) of 0.00352

----------
- TEST_CONDITIONS: in n-propanol, 298.15 K
READOUT: solubility (mole fraction)
Form field (numeric): enter value without unit.

Query `Nc1c(Cl)cc([N+](=O)[O-])cc1Cl` yields solubility (mole fraction) of 0.00216

----------
- TEST_CONDITIONS: in isopropanol, 323.15 K
READOUT: solubility (mole fraction)

Query `Nc1c(Cl)cc([N+](=O)[O-])cc1Cl` yields solubility (mole fraction) of 0.00413

----------
- TEST_CONDITIONS: in ethyl acetate, 293.15 K
READOUT: solubility (mole fraction)
Form field (numeric): enter value without unit.

Query `Nc1c(Cl)cc([N+](=O)[O-])cc1Cl` yields solubility (mole fraction) of 0.0126

----------
- TEST_CONDITIONS: in water, 288.15 K
READOUT: solubility (mole fraction)
Form field (numeric): enter value without unit.

Query `Nc1c(Cl)cc([N+](=O)[O-])cc1Cl` yields solubility (mole fraction) of 3.43e-06

----------
- TEST_CONDITIONS: in 1,4-dioxane, 308.15 K
READOUT: solubility (mole fraction)
Form field (numeric): enter value without unit.

Query `Nc1c(Cl)cc([N+](=O)[O-])cc1Cl` yields solubility (mole fraction) of 0.0389

----------
- TEST_CONDITIONS: in acetonitrile, 278.15 K
READOUT: solubility (mole fraction)

Query `Nc1c(Cl)cc([N+](=O)[O-])cc1Cl` yields solubility (mole fraction) of 0.00152

----------
- TEST_CONDITIONS: in n-butanol, 283.15 K
READOUT: solubility (mole fraction)
Form field (numeric): enter value without unit.

Query `Nc1c(Cl)cc([N+](=O)[O-])cc1Cl` yields solubility (mole fraction) of 0.00148

----------
- TEST_CONDITIONS: in n-propanol, 313.15 K
READOUT: solubility (mole fraction)
Form field (numeric): enter value without unit.

Query `Nc1c(Cl)cc([N+](=O)[O-])cc1Cl` yields solubility (mole fraction) of 0.00364

----------
- TEST_CONDITIONS: in ethylene glycol, 303.15 K
READOUT: solubility (mole fraction)

Query `Nc1c(Cl)cc([N+](=O)[O-])cc1Cl` yields solubility (mole fraction) of 0.00195

----------
- TEST_CONDITIONS: in ethyl acetate, 303.15 K
READOUT: solubility (mole fraction)
Form field (numeric): enter value without unit.

Query `Nc1c(Cl)cc([N+](=O)[O-])cc1Cl` yields solubility (mole fraction) of 0.0177

----------
- TEST_CONDITIONS: in ethanol, 288.15 K
READOUT: solubility (mole fraction)
Form field (numeric): enter value without unit.

Query `Nc1c(Cl)cc([N+](=O)[O-])cc1Cl` yields solubility (mole fraction) of 0.00123

----------
- TEST_CONDITIONS: in NMP, 283.15 K
READOUT: solubility (mole fraction)

Query `Nc1c(Cl)cc([N+](=O)[O-])cc1Cl` yields solubility (mole fraction) of 0.141

----------
- TEST_CONDITIONS: in ethylene glycol, 283.15 K
READOUT: solubility (mole fraction)
Form field (numeric): enter value without unit.

Query `Nc1c(Cl)cc([N+](=O)[O-])cc1Cl` yields solubility (mole fraction) of 0.000969

----------
- TEST_CONDITIONS: in 1,4-dioxane, 313.15 K
READOUT: solubility (mole fraction)
Form field (numeric): enter value without unit.

Query `Nc1c(Cl)cc([N+](=O)[O-])cc1Cl` yields solubility (mole fraction) of 0.0447

----------
- TEST_CONDITIONS: in ethanol, 318.15 K
READOUT: solubility (mole fraction)
Form field (numeric): enter value without unit.

Query `Nc1c(Cl)cc([N+](=O)[O-])cc1Cl` yields solubility (mole fraction) of 0.00384

----------
- TEST_CONDITIONS: in ethylene glycol, 318.15 K
READOUT: solubility (mole fraction)
Form field (numeric): enter value without unit.

Query `Nc1c(Cl)cc([N+](=O)[O-])cc1Cl` yields solubility (mole fraction) of 0.00338

----------
- TEST_CONDITIONS: in ethyl acetate, 308.15 K
READOUT: solubility (mole fraction)
Form field (numeric): enter value without unit.

Query `Nc1c(Cl)cc([N+](=O)[O-])cc1Cl` yields solubility (mole fraction) of 0.0208

----------
- TEST_CONDITIONS: in isopropanol, 313.15 K
READOUT: solubility (mole fraction)
Form field (numeric): enter value without unit.

Query `Nc1c(Cl)cc([N+](=O)[O-])cc1Cl` yields solubility (mole fraction) of 0.00281

----------
- TEST_CONDITIONS: in cyclohexane, 313.15 K
READOUT: solubility (mole fraction)

Query `Nc1c(Cl)cc([N+](=O)[O-])cc1Cl` yields solubility (mole fraction) of 0.000617

----------
- TEST_CONDITIONS: in ethylene glycol, 288.15 K
READOUT: solubility (mole fraction)
Form field (numeric): enter value without unit.

Query `Nc1c(Cl)cc([N+](=O)[O-])cc1Cl` yields solubility (mole fraction) of 0.00117

----------
- TEST_CONDITIONS: in n-propanol, 303.15 K
READOUT: solubility (mole fraction)
Form field (numeric): enter value without unit.

Query `Nc1c(Cl)cc([N+](=O)[O-])cc1Cl` yields solubility (mole fraction) of 0.00258

----------
- TEST_CONDITIONS: in cyclohexane, 278.15 K
READOUT: solubility (mole fraction)
Form field (numeric): enter value without unit.

Query `Nc1c(Cl)cc([N+](=O)[O-])cc1Cl` yields solubility (mole fraction) of 0.000119

----------
- TEST_CONDITIONS: in NMP, 318.15 K
READOUT: solubility (mole fraction)
Form field (numeric): enter value without unit.

Query `Nc1c(Cl)cc([N+](=O)[O-])cc1Cl` yields solubility (mole fraction) of 0.211

----------
- TEST_CONDITIONS: in methanol, 308.15 K
READOUT: solubility (mole fraction)

Query `Nc1c(Cl)cc([N+](=O)[O-])cc1Cl` yields solubility (mole fraction) of 0.00224

----------
- TEST_CONDITIONS: in methanol, 278.15 K
READOUT: solubility (mole fraction)
Form field (numeric): enter value without unit.

Query `Nc1c(Cl)cc([N+](=O)[O-])cc1Cl` yields solubility (mole fraction) of 0.000705

----------
- TEST_CONDITIONS: in water, 283.15 K
READOUT: solubility (mole fraction)
Form field (numeric): enter value without unit.

Query `Nc1c(Cl)cc([N+](=O)[O-])cc1Cl` yields solubility (mole fraction) of 2.53e-06

----------
- TEST_CONDITIONS: in n-butanol, 298.15 K
READOUT: solubility (mole fraction)

Query `Nc1c(Cl)cc([N+](=O)[O-])cc1Cl` yields solubility (mole fraction) of 0.0026

----------
- TEST_CONDITIONS: in methanol, 303.15 K
READOUT: solubility (mole fraction)
Form field (numeric): enter value without unit.

Query `Nc1c(Cl)cc([N+](=O)[O-])cc1Cl` yields solubility (mole fraction) of 0.00182

----------
- TEST_CONDITIONS: in ethanol, 293.15 K
READOUT: solubility (mole fraction)
Form field (numeric): enter value without unit.

Query `Nc1c(Cl)cc([N+](=O)[O-])cc1Cl` yields solubility (mole fraction) of 0.00149

----------
- TEST_CONDITIONS: in n-butanol, 313.15 K
READOUT: solubility (mole fraction)
Form field (numeric): enter value without unit.

Query `Nc1c(Cl)cc([N+](=O)[O-])cc1Cl` yields solubility (mole fraction) of 0.00446
